Reference for the values: paper PMC9820559

# measured-on: RSV N-RNA complex (Human respiratory syncytial virus A, UniProt P03418)
# Construct: Full-length N was produced by co-expression with the C-terminal domain of RSV P protein in E. coli BL21(DE3); made in house; host or cells: E. coli BL21(DE3), co-transformed with pET-N and pGEX-P(161–241)
# test-method-notes: Fluorescence polarization inhibition of N-RNA binding to fluorescent probes
# setup-conditions: fluorescent probe fluorescein 1 200 nM, 20 µM N-RNA; read-out: M76 IC50
# Sequence (P03418 whole entry, looked up, the tested form may be a part, one chain of several): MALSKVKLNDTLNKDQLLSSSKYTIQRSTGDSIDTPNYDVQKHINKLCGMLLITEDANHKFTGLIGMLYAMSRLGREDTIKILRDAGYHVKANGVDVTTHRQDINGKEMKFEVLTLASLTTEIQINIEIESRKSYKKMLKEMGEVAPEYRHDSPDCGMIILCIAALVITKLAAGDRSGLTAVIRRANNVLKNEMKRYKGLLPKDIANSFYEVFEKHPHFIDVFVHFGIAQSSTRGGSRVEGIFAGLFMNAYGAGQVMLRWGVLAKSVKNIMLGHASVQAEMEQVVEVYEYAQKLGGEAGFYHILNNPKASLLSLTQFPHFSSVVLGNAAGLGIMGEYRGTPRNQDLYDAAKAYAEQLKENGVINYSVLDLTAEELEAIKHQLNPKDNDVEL
pIC50: −log10 of the molar value.
result-type: pIC50

substance_smiles=O=C(O)c1cc(C(=O)O)n(Cc2ccc(Cl)cc2Cl)n1 recorded_result=4.57

---

# measured-on: RSV N-RNA complex (Human respiratory syncytial virus A, UniProt P03418)
# Construct: Full-length N was produced by co-expression with the C-terminal domain of RSV P protein in E. coli BL21(DE3); made in house; host or cells: E. coli BL21(DE3), co-transformed with pET-N and pGEX-P(161–241)
# test-method-notes: Fluorescence polarization inhibition of N-RNA binding to fluorescent probes
# setup-conditions: probe BCN10EE 200 nM, inhibitor M76, [N-RNA] 1 µM, Tris pH 8; read-out: Fitted IC50
result-type: IC50 (µM)

substance_smiles=O=C(O)c1cc(C(=O)O)n(Cc2ccc(Cl)cc2Cl)n1 measured_on="RSV N-RNA complex (Human respiratory syncytial virus A, UniProt P03418)" recorded_result=8.5

---

# measured-on: RSV N-RNA complex (Human respiratory syncytial virus A, UniProt P03418)
# Construct: Full-length N was produced by co-expression with the C-terminal domain of RSV P protein in E. coli BL21(DE3); made in house; host or cells: E. coli BL21(DE3), co-transformed with pET-N and pGEX-P(161–241)
# test-method-notes: Fluorescence polarization inhibition of N-RNA binding to fluorescent probes
# setup-conditions: probe BCN10EE, [N-RNA] 2 µM; IC50-to-Ki server; read-out: Ki
pKi: −log10 of the molar value.
result-type: pKi

substance_smiles=O=C(O)c1cc(C(=O)O)n(Cc2ccc(Cl)cc2Cl)n1 result_type=pKi recorded_result=6.30

---

Kd listing for selected molecules.
# measured-on: RSV N-RNA complex (Human respiratory syncytial virus A, UniProt P03418)
# Construct: Full-length N was produced by co-expression with the C-terminal domain of RSV P protein in E. coli BL21(DE3); made in house; host or cells: E. coli BL21(DE3), co-transformed with pET-N and pGEX-P(161–241)
# test-method-notes: biochemical
# Assay type: binding
# setup-conditions: Kd, Fn peptides 200 nM, Tris pH 8.0 without salt; single site binding model
Peptide text beside a SMILES is read from it. * marks the point of attachment. FITC = O=C1OC2(c3ccc(O)cc3Oc3cc(O)ccc32)c2ccc(NC(=S)*)cc21
result-type: Kd (µM)

molecule="CC(C)C[C@H](NC(=S)Nc1ccc2c(c1)C(=O)OC21c2ccc(O)cc2Oc2cc(O)ccc21)C(=O)N[C@@H](CCC(=O)O)C(=O)N[C@@H](CC(=O)O)C(=O)N[C@@H](Cc1ccccc1)C(=O)O [F4, ϕ-LEDF-OH] ({FITC}-LEDF-OH)" units_symbol=µM limit_operator== recorded_result=35
molecule="CC(C)C[C@H](NC(=O)[C@H](CCC(=O)O)NC(=O)[C@H](CC(C)C)NC(=O)[C@H](CC(=O)O)NC(=S)Nc1ccc2c(c1)C(=O)OC21c2ccc(O)cc2Oc2cc(O)ccc21)C(=O)N[C@@H](CCC(=O)O)C(=O)N[C@@H](CC(=O)O)C(=O)N[C@@H](Cc1ccccc1)C(=O)O [F7E, ϕ-DLE237LEDF-OH] ({FITC}-DLELEDF-OH)" units_symbol=µM limit_operator== recorded_result=2.5
molecule="O=C(O)CC[C@H](NC(=S)Nc1ccc2c(c1)C(=O)OC21c2ccc(O)cc2Oc2cc(O)ccc21)C(=O)N[C@@H](CC(=O)O)C(=O)N[C@@H](Cc1ccccc1)C(=O)O [F3, ϕ-EDF-OH] ({FITC}-Glu-Asp-Phe-OH)" units_symbol=µM limit_operator== recorded_result=62
molecule="CC(C)C[C@H](NC(=O)[C@H](CCC(=O)O)NC(=O)[C@H](CC(C)C)NC(=O)[C@H](CC(=O)O)NC(=O)[C@H](CC(N)=O)NC(=O)[C@H](CC(=O)O)NC(=S)Nc1ccc2c(c1)C(=O)OC21c2ccc(O)cc2Oc2cc(O)ccc21)C(=O)N[C@@H](CCC(=O)O)C(=O)N[C@@H](CC(=O)O)C(=O)N[C@@H](Cc1ccccc1)C(=O)O [F9E, ϕ-DNDLE237LEDF-OH] ({FITC}-DNDLELEDF-OH)" units_symbol=µM limit_operator== recorded_result=2.2
molecule="CC(C)C[C@H](NC(=O)[C@H](CO)NC(=O)[C@H](CC(C)C)NC(=O)[C@H](CC(=O)O)NC(=O)[C@H](CC(N)=O)NC(=O)[C@H](CC(=O)O)NC(=O)[C@H](CO)NC(=O)[C@H](CC(=O)O)NC(=S)Nc1ccc2c(c1)C(=O)OC21c2ccc(O)cc2Oc2cc(O)ccc21)C(=O)N[C@@H](CCC(=O)O)C(=O)N[C@@H](CC(=O)O)C(=O)N[C@@H](Cc1ccccc1)C(=O)O [F11, ϕ-DS232DNDLS237LEDF-OH] ({FITC}-DSDNDLSLEDF-OH)" units_symbol=µM limit_operator== recorded_result=7.6
molecule="CC(C)C[C@H](NC(=O)[C@H](CCC(=O)O)NC(=O)[C@H](CC(C)C)NC(=O)[C@H](CC(=O)O)NC(=O)[C@H](CC(N)=O)NC(=O)[C@H](CC(=O)O)NC(=O)[C@H](CO)NC(=O)[C@H](CC(=O)O)NC(=S)Nc1ccc2c(c1)C(=O)OC21c2ccc(O)cc2Oc2cc(O)ccc21)C(=O)N[C@@H](CCC(=O)O)C(=O)N[C@@H](CC(=O)O)C(=O)N[C@@H](Cc1ccccc1)C(=O)O [F11SE, ϕ-DS232DNDLE237LEDF-OH] ({FITC}-DSDNDLELEDF-OH)" units_symbol=µM limit_operator=< recorded_result=1

---

# measured-on: RSV N-RNA complex (Human respiratory syncytial virus A)
# Construct: Full-length N was produced by co-expression with the C-terminal domain of RSV P protein in E. coli BL21(DE3); made in house; host or cells: E. coli BL21(DE3), co-transformed with pET-N and pGEX-P(161–241)
# test-method-notes: Fluorescence polarization inhibition of N-RNA binding to fluorescent probes
# setup-conditions: fluorescent probe fluorescein ethyl ester 3, 20 µM N-RNA; from IC50 and Kd; read-out: M76 Ki
pKi: −log10 of the molar value.
result-type: pKi

substance_smiles=O=C(O)c1cc(C(=O)O)n(Cc2ccc(Cl)cc2Cl)n1 recorded_result=4.30
